From: patent US20230364057A1

Target: Mtb DNA gyrase (Mycobacterium tuberculosis (strain ATCC 25618 / H37Rv), UniProt P9WG45+P9WG47)
Test: Mtb DNA gyrase inhibition assay (gel-based)
Type: biochemical
Method: The IC50 against E. coli (A) and Mtb (C) gyrase were determined using the gel-based gyrase inhibition assays. The gyrase mediated DNA cleavage assays (B and D) were performed using pBR322. (A) 229 inhibits E. coli gyrase. Lane 1, rx pAB1. […] Lane 1, rx pAB1. […] 100 µM of CPDs were used. Symbols rx, nk, In, and sc represent relaxed, nicked, linear, and supercoiled DNA, respectively. […]

compound	inhibition of Mtb DNA gyrase activities
CNC(=O)[C@H]1O[C@@H](n2cnc3c(NCc4cccc(I)c4)ncnc32)[C@H](O)[C@@H]1O [IB-MECA, reference compound]	did not inhibit
CNC(=O)[C@H]1O[C@@H](n2cnc3c(NCc4cccc(I)c4)nc(Cl)nc32)[C@H](O)[C@@H]1O [chloro-IB-MECA, reference compound]	did not inhibit
CNC(=O)[C@H]1O[C@@H](n2cnc3c(NCc4ccc(N)cc4)ncnc32)[C@H](O)[C@@H]1O [AB-MECA, reference compound]	did not inhibit

====

biological target: E. coli DNA gyrase (Escherichia coli (strain K12), UniProt P0AES4+P0AES6); experiment: DNA gyrase mediated DNA cleavage assay; type: biochemical; conditions: pBR322
experimental-readout: E. coli DNA gyrase-mediated DNA breaks and nicking

compound	test-value
O=C1C=C(NCCc2cc(Br)c(O)c(Br)c2)C(=O)c2ncccc21 [Compound 232]	cause DNA nicking
O=C(O)CCNc1ccc(NCCC(=O)O)c2c1C(=O)c1ccccc1C2=O [Compound 173]	cause DNA nicking

====

Target: Mtb DNA gyrase (Mycobacterium tuberculosis (strain ATCC 25618 / H37Rv), UniProt P9WG45+P9WG47)
Experiment: Mtb DNA gyrase inhibition assay (gel-based)
Assay type: biochemical
Conditions: Table 5, Mtb gyrase; read-out: IC50 (µM) Mtb
Protocol: The IC50 against E. coli (A) and Mtb (C) gyrase were determined using the gel-based gyrase inhibition assays. The gyrase mediated DNA cleavage assays (B and D) were performed using pBR322. (A) 229 inhibits E. coli gyrase. Lane 1, rx pAB1. […] Lane 1, rx pAB1. […] 100 µM of CPDs were used. Symbols rx, nk, In, and sc represent relaxed, nicked, linear, and supercoiled DNA, respectively. […]
Reported log10(IC50) values are given for each entry in this list.
// stored as log10 of IC50 expressed in µM

Example results:
structure	log10(IC50)
Cc1c(CCC(=O)O)c(=O)oc2c(C)c3occ(-c4ccc(N5CCCC5)cc4)c3cc12	1.74
Cc1c(CC(=O)O)c(=O)oc2c(C)c3occ(-c4ccc(Br)cc4)c3cc12	1.70
Cc1c(CCC(=O)O)c(=O)oc2c(C)c3occ(-c4ccc5ccccc5c4)c3cc12	0.48

State its log10(IC50): Cc1c(CCC(=O)O)c(=O)oc2c(C)c3occ(-c4ccc(-c5ccccc5)cc4)c3cc12
1.20

Query log10(IC50) for Cc1c(CCC(=O)O)c(=O)oc2cc3occ(-c4ccc(Cl)cc4)c3cc12
1.81

====

system: S. aureus (ATCC 14775); assay: Minimum inhibitory concentration, broth microdilution; details: Staphylococcus aureus, ATCC14775, read-out: MIC (µM) SA
# maps each entry to its MIC

molecule	target-of-assay	MIC
Cc1c(CCC(=O)O)c(=O)oc2c(C)c3occ(-c4ccccc4)c3cc12 [Compound 121]	S. aureus (ATCC 14775)	3.1 µM

State MIC on S. aureus (ATCC 14775). Entry: Cc1c(C)c2cc3c(-c4ccc(Br)cc4)coc3c(C)c2oc1=O [Compound 118]
> 200 µM

Under S. aureus (ATCC 14775): report MIC of Cc1c(CCC(=O)O)c(=O)oc2c(C)c3occ(-c4ccc5ccccc5c4)c3cc12 [Compound 124] .
1.6 µM

Would you please give the reported MIC of Cc1c(CCC(=O)O)c(=O)oc2cc3occ(-c4ccc(Cl)cc4)c3cc12 [Compound 25] with S. aureus (ATCC 14775)?
> 200 µM

Return reported MIC for target or system S. aureus (ATCC 14775), item Cc1c(CC(=O)O)c(=O)oc2c(C)c3occ(-c4ccc(Br)cc4)c3cc12 [Compound 117] .
1.6 µM

Provide MIC, recorded with S. aureus (ATCC 14775), of Cc1c(CCC(=O)O)c(=O)oc2c(C)c3occ(-c4ccc(Br)cc4)c3cc12 [Compound 48]
3.1 µM

Find MIC for Cc1c(CCC(=O)O)c(=O)oc2c(C)c3occ(-c4ccc(Cl)cc4)c3cc12 [Compound 120] on S. aureus (ATCC 14775) and write it down.
1.6 µM

Recall the reported MIC of Cc1c(CCC(=O)O)c(=O)oc2c(C)c3occ(-c4ccc(F)cc4)c3cc12 [Compound 123] when tested on S. aureus (ATCC 14775).
1.6 µM

Specify the recorded MIC for Cc1coc2cc3oc(=O)c(CCC(=O)O)c(C)c3cc12 [Compound 122] , system: S. aureus (ATCC 14775).
> 200 µM

Name the recorded MIC of Cc1c(CCC(=O)O)c(=O)oc2c(C)c3occ(-c4ccc(-c5ccccc5)cc4)c3cc12 [Compound 119] , assay system S. aureus (ATCC 14775).
0.8 µM

Please report MIC with S. aureus (ATCC 14775) for item Cc1c(CCC(=O)O)c(=O)oc2c(C)c3occ(-c4ccc(N5CCCC5)cc4)c3cc12 [Compound 125] .
> 200 µM

====

target: E. coli DNA topoisomerase IV (Escherichia coli (strain K12), UniProt P0AFI2+P20083); assay: E. coli DNA topoisomerase IV relaxation assay (gel-based); format: biochemical; settings: IC50 against E. coli DNA topoisomerase IV, relaxation
Sequence (P0AFI2 whole entry, looked up): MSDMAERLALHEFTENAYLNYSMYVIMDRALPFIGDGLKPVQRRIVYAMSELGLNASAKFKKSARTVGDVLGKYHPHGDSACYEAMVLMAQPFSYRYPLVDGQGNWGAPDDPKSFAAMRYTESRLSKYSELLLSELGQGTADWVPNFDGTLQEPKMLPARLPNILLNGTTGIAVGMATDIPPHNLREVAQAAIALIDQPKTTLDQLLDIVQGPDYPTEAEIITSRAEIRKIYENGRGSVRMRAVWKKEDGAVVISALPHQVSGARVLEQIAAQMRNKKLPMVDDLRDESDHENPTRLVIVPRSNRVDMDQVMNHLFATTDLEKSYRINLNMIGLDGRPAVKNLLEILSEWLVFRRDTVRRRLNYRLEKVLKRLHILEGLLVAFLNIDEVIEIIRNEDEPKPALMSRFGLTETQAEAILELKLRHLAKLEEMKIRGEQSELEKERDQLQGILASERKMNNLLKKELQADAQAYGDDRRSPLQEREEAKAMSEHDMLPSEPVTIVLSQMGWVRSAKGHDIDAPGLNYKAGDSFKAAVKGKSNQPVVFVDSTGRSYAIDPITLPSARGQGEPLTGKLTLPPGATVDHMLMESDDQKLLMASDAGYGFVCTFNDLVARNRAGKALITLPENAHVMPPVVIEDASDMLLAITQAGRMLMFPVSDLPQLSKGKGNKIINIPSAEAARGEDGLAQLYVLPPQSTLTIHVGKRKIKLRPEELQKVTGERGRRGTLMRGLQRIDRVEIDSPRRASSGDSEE
Sequence (P20083 whole entry, looked up): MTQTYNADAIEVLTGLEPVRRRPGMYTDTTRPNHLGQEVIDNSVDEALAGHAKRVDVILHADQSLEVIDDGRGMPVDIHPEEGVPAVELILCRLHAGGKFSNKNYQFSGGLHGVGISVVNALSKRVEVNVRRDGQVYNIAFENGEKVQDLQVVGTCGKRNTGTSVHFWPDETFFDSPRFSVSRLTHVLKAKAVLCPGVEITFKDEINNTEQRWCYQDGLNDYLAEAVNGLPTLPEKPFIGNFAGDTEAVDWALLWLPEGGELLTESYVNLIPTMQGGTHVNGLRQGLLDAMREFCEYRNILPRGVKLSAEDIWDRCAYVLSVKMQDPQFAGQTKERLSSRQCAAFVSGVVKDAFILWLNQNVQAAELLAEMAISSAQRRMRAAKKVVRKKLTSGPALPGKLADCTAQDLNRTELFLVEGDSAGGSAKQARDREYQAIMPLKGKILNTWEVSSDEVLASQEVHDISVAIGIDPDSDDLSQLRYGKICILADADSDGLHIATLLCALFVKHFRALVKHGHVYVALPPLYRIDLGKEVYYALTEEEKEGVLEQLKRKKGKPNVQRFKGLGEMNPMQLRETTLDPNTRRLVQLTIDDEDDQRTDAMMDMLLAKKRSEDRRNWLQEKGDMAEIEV
pIC50: −log10 of the molar value.
experimental-readout: pIC50

Tell me pIC50 reported for O=C(O)c1cc(O)c(O)c(OC(=O)c2cc(O)c(O)c(O)c2)c1
~5.10

====

test system: MRSA; experiment: Minimum inhibitory concentration, broth microdilution; conditions: Staphylococcus aureus, MRSA, read-out: Minimum Inhibitory Concentration S.aureus MRSA
Threshold check on MIC: strictly below 50 µM is Fulfilled; on or above 50 µM is Not fulfilled.

// below: answered molecules
molecule	target-of-assay	group
CCc1ccc(S(=O)(=O)/N=C2/C=C(Nc3ccc(C(=O)O)cc3)C(=O)c3ccccc32)cc1	MRSA	Not fulfilled
Cc1c(CCC(=O)O)c(=O)oc2c(C)c3occ(-c4ccccc4)c3cc12	MRSA	Fulfilled
O=C(Nc1cccc(C2=NCCN2)c1)Nc1cccc(C2=NCCN2)c1	MRSA	Not fulfilled
O=C1N=C(O)/C(=C/c2ccc(N3CCCC3)cc2)C(=O)N1Cc1ccc(F)cc1	MRSA	Not fulfilled
Cc1c(CCC(=O)O)c(=O)oc2c(C)c3occ(-c4ccc(Cl)cc4)c3cc12	MRSA	Fulfilled
Cc1c(CCC(=O)O)c(=O)oc2c(C)c3occ(-c4ccc(Br)cc4)c3cc12	MRSA	Fulfilled

State whether 50 µM exceeds MIC recorded for COc1cccc(-n2c(C)cc(/C=C3/C(=N)N4C(=NC3=O)SN=C4[S+](C)[O-])c2C)c1 (stereo not shown) .
Not fulfilled

Does the reported MIC of the following molecule sit strictly below 50 µM? Cc1c(CC(=O)O)c(=O)oc2c(C)c3occ(-c4ccc(Br)cc4)c3cc12
Fulfilled

Confirm or reject: MIC of Cc1ccc(-c2csc(NC(=O)c3cccc(C)c3)c2C(=O)O)cc1 lies strictly below 50 µM
Not fulfilled

Please determine if Cc1c(CCC(=O)O)c(=O)oc2c(C)c3occ(-c4ccc5ccccc5c4)c3cc12 is below 50 µM in terms of MIC.
Fulfilled

In the record for O=C(/C=C/c1ccco1)Nc1cccc2cccnc12 , is MIC less than 50 µM?
Not fulfilled

Does O=C(O)CCNc1ccc(NCCC(=O)O)c2c1C(=O)c1ccccc1C2=O have MIC strictly under 50 µM?
Not fulfilled

Report whether reported MIC is lower than 50 µM (strictly) for Cc1cc(C)c2c(c1)C(=NNc1ccc(C(=O)O)cc1)C(O)=N2
Fulfilled

====

target: E. coli DNA gyrase (Escherichia coli (strain K12), UniProt P0AES4+P0AES6); test: biochemical; assay type: biochemical
experimental-readout: inhibition of E. coli DNA gyrase activities

Reference set, count: 5
compound	test-value
O=C(/C=C/c1ccc(O)c(O)c1)O[C@@H]1CC(O)(C(=O)O)C[C@@H](OC(=O)/C=C/c2ccc(O)c(O)c2)C1O (some centres unmarked) [3,5-dicaffeoylquinic acid, reference compound]	strongly inhibit
O=c1oc2c(O)c(O)cc3c(=O)oc4c(O)c(O)cc1c4c23 [ellagic acid, reference compound]	strongly inhibit
Cc1c(CCC(=O)O)c(=O)oc2c(C)c3occ(-c4ccc(N5CCCC5)cc4)c3cc12	potently inhibited
O=C(O[C@@H]1Cc2c(O)cc(O)cc2O[C@@H]1c1cc(O)c(O)c(O)c1)c1cc(O)c(O)c(O)c1 [EGCG, epigallocatechin gallate, reference compound]	strongly inhibit
O=C(O)c1cc(O)c2c(c1)C(=O)c1cccc(O)c1C2=O	potently inhibited

Please find the next compound below.
Give recorded inhibition of E. coli DNA gyrase activities. Cc1cc(O)c2c(c1)C(=O)c1cc(O)cc(O)c1C2=O
potently inhibited
